- tested_system: hENPP2 (UniProtKB/SwissProt Sequence ref Q13822) (Homo sapiens (Human), UniProt Q13822)
- experimental_protocol: LPC hENPP2 assay (choline release, LPC as substrate)
- Type: biochemical
pIC50: −log10 of the molar value.
endpoint_label: pIC50

INSERT INTO assay_data (compound, endpoint_label, result) VALUES
  ('CCc1nc2ccc(N3CCC(CC(=O)N(C)C)CC3)nn2c1N(C)c1nc(-c2ccc(F)cc2)cs1', 'pIC50', '6.00 to 6.30'),
  ('CCNC(=O)COC1CCCN(c2ccc3nc(CC)c(N(C)c4nc(-c5ccc(F)cc5)cs4)n3n2)C1 (centres unmarked)', 'pIC50', '< 6.00'),
  ('CCc1nc2cnc(N3CCN(CC(=O)N4CC[C@H](O)C4)CC3)cn2c1N(C)c1nc(-c2ccc(F)cc2)c(C#N)s1', 'pIC50', '6.30 to 7.00'),
  ('CCc1nc2ccc(N3CCCC(N4CCC(O)CC4)C3)nn2c1N(C)c1nc(-c2ccc(F)cc2)cs1 (centres unmarked)', 'pIC50', '< 6.00'),
  ('CCc1nc2ccc(N3CCC(C(=O)N4CCOCC4)C3)nn2c1N(C)c1nc(-c2ccc(F)cc2)cs1 (centres unmarked)', 'pIC50', '< 6.00'),
  ('CCc1nc2ccc(N3CCC(N4CCC(OC)CC4)C3)nn2c1N(C)c1nc(-c2ccc(F)cc2)c(C#N)s1 (centres unmarked)', 'pIC50', '7.00 to 11.00'),
  ('CCc1nc2ccc(N3CCC(CN)CC3)nn2c1N(C)c1nc(-c2ccc(F)cc2)cs1', 'pIC50', '< 6.00'),
  ('CCc1nc2ccc(N3CCC(N4C[C@@H](C)O[C@@H](C)C4)C3)nn2c1N(C)c1nc(-c2ccc(F)cc2)c(C#N)s1 (some centres unmarked)', 'pIC50', '6.00 to 6.30'),
  ('CCc1nc2cnc(N3CCN(C(=O)CN4CC(O)C4)CC3)cn2c1N(C)c1nc(-c2ccc(F)cc2)c(C#N)s1', 'pIC50', '< 6.00'),
  ('CCc1nc2cnc(C3CCN(CC(=O)N4CC[C@H](O)C4)CC3)cn2c1N(C)c1nc(-c2ccc(F)cc2)c(C#N)s1', 'pIC50', '6.30 to 7.00'),
  ('CCc1nc2ccc(N3CCC(C(=O)NCCO)C3)nn2c1N(C)c1nc(-c2ccc(F)cc2)cs1 (centres unmarked)', 'pIC50', '< 6.00'),
  ('CCc1nc2ccc(N3CCN(C(=O)C4CCCO4)CC3)nn2c1N(C)c1nc(-c2ccc(F)cc2)cs1 (centres unmarked)', 'pIC50', '< 6.00'),
  ('CCc1nc2ccc(N3CC(C(=O)N4CCOCC4)C3)nn2c1N(C)c1nc(-c2ccc(F)cc2)c(C#N)s1', 'pIC50', '6.30 to 7.00'),
  ('CCc1nc2ccc(N3CCC4(CN(C)C(=O)O4)C3)nn2c1N(C)c1nc(-c2ccc(F)cc2)cs1 (centres unmarked)', 'pIC50', '6.30 to 7.00');

Data origin: patent US9796719B2
